system: HEK-293T; assay: Multiplex assay against HEK293T; assay type: toxicity, cell-based; settings: human, 24 h, 1 µM, compound concentration 1 uM, replicate 2
Non-standard residues stand in square brackets, D forms with d. Residues, ends and D or L forms follow the SMILES beside them.
Metric: Total Cell Count
Answers are plain numbers.

Some solved cases for reference:
Compound	Total Cell Count
N[C@](CC1c2ccccc2Oc2ccccc21)(C(=O)O)[C@H]1C[C@@H]1C(=O)O	368
CN1CCC(C(=O)c2cccc(NC(=O)c3c(F)cc(F)cc3F)n2)CC1	478
CC(C)C[C@@H]1NC(=O)[C@@H](C(C)C)NC(=O)[C@@H]2CCCN2C(=O)[C@@H](CC(=O)O)NC(=O)[C@@H](Cc2c[nH]c3ccccc23)NC1=O [BQ-123] (cyclo(L[dW][dD]P[dV]))	538
CC(C)(O)C(=O)N1CCN(c2ccc(C(F)(F)F)c(C3=C(c4c[nH]c5ccccc45)C(=O)NC3=O)c2)CC1	335
COc1cc2nc(N3CCN(C(=O)COc4c(OC)cccc4C(C)C)CC3)nc(N)c2cc1OC.Cl.Cl	472
COc1ccc2[nH]c(I)c(CCNC(C)=O)c2c1	497

Please look at the following compound next.
Please give the measured Total Cell Count for this compound: O=C(NCCNCC(O)COc1ccc(O)cc1)N1CCOCC1.O=C(NCCNCC(O)COc1ccc(O)cc1)N1CCOCC1.O=C(O)/C=C/C(=O)O (configuration not stated) [XAMOTEROL FUMARATE] 366

====

tested on: Fibroblast; assay: Multiplex assay against human fibroblast; assay type: toxicity, cell-based; details: 12 h, 10 µM, compound concentration 10 uM, replicate 1
Non-standard residues stand in square brackets, D forms with d. Residues, ends and D or L forms follow the SMILES beside them.
Metric: Population Membrane Permeable-Phenotype (%)

Molecule	Result
Cn1cc(C(=O)OCC2CCN(CCNS(C)(=O)=O)CC2)c2ccccc21	0%
C[C@@H]1CC(=O)Nc2cccc(-c3ccc4c(c3)c(-c3cnn(C)c3)nn4C)c2N1	1%
O=c1nc2[nH]c3ccccc3nc-2c(=O)[nH]1	3%
COC(c1ccccc1)(c1ccccc1)[C@H](Oc1nc(C)cc(C)n1)C(=O)O	0%

Hey, can you go through the list below and give me Population Membrane Permeable-Phenotype (%) for every item?
1. COc1cc2nc(N3CCN(C(=O)c4ccco4)CC3)nc(N)c2cc1OC.Cl [PRAZOSIN HYDROCHLORIDE]
2. Cc1ccc(OCC(O)C(C)NC(C)C)c2c1CCC2.Cl (stereo not drawn)
3. Cc1cc(=O)n(C)c2cc(N3C(=O)CC[C@H](NS(=O)(=O)CC(C)C)[C@H]3c3ccc(Cl)cc3)ccc12
4. CC(C)C[C@@H]1NC(=O)[C@@H](C(C)C)NC(=O)[C@@H]2CCCN2C(=O)[C@@H](CC(=O)O)NC(=O)[C@@H](Cc2c[nH]c3ccccc23)NC1=O [BQ-123] (cyclo(L[dW][dD]P[dV]))

1: 0%; 2: 0%; 3: 1%; 4: 0%

====

system: HEK-293T; assay: Multiplex assay against HEK293T; type: toxicity, cell-based; settings: human, 24 h, 10 µM, compound concentration 10 uM, replicate 1
Please note: fulfilled applies when Total Cell Count is 500 or greater, and not fulfilled applies otherwise.

Would you please look over these solved cases?
>>> print(df.to_string())
                                   compound  assigned_category
0  CCc1nn2c(C)cc(C)nc2c1Cc1ccc(-c2nnc(C3CCNCC3)o2)cc1      not fulfilled
1  CSc1nc(NC2CCCC2)c([N+](=O)[O-])c(NC2CCCC2)n1          fulfilled

Alright, here's another compound for you.
Could you please find out whether Cl.Cl.OCCOCCN1CCN(C(c2ccccc2)c2ccc(Cl)cc2)CC1 (stereo not given) [HYDROXYZINE HYDROCHLORIDE] has Total Cell Count that meets 500 or exceeds it? not fulfilled

====

tested on: HEK-293T; experiment: Multiplex assay against HEK293T; assay type: toxicity, cell-based; details: human, 24 h, 1 µM, compound concentration 1 uM, replicate 1
Lab note: compare Population Apoptotic (%) against 30%. Equal or greater, write Criterion met. Smaller, write Criterion not met.

Example cases with answers are listed next.
                                   molecule  assigned_category
0  CN1CCC(C(=O)c2cccc(NC(=O)c3c(F)cc(F)cc3F)n2)CC1  Criterion not met
1  Cc1cc(-c2ccc3c(c2)CC[C@H]3N2CC3(CCN(C(=O)Cc4cn5cc(C)sc5n4)CC3)C2)ncn1 [PF-5190457]  Criterion not met
2  COc1cc(Nc2ncc3c(n2)-c2ccc(Cl)cc2C(c2c(F)cccc2OC)=NC3)ccc1C(=O)O [ALISERTIB]      Criterion met
3  Cc1ccc(OCC(O)C(C)NC(C)C)c2c1CCC2.Cl (centres undefined)      Criterion met

# check: Population Apoptotic (%) of Cc1cc(NC(=O)NCCN2CCC(O)(Cc3ccccc3)CC2)c2ccccc2n1 [PALOSURAN] is greater than or equal to 30% Criterion not met

Now try `Cc1sc2c(c1C)C(c1ccc(Cl)cc1)=N[C@H](CC(=O)OC(C)(C)C)c1nnc(C)n1-2` . Criterion met

====

system: HEK-293T; test: Multiplex assay against HEK293T; format: toxicity, cell-based; details: human, 24 h, 10 µM, compound concentration 10 uM, replicate 2
Classes by Population Mitochondria Different-Phenotype (%): lower segment (below 50%), middle segment (50% to below 70%), upper segment (70% or more)

Field: example entries. Status: answers known.
In [3]: df
Out[3]:
                                 cpd_smiles  assigned_category
0  CN(C)C(=O)Cn1cc(-c2ccc(-c3nnc4ccccn34)cc2)cn1      lower segment
1  N[C@](CC1c2ccccc2Oc2ccccc21)(C(=O)O)[C@H]1C[C@@H]1C(=O)O      lower segment

Which category fits this record: `O=c1ccc2ccc(OCCCCN3CCN(c4cccc5sccc45)CC3)cc2[nH]1` upper segment

Same again, this time with `O=c1nc2[nH]c3ccccc3nc-2c(=O)[nH]1` lower segment

How about this compound: `Cn1cc(C(=O)OCC2CCN(CCNS(C)(=O)=O)CC2)c2ccccc21` middle segment

And for `Cc1cc(O)c(-c2ccc([C@@H](C)CN(C)C)cc2)c2c1[nH]c(=O)c1sccc12` ? upper segment

====

test system: U2OS; experiment: Multiplex assay against U2OS; type: toxicity, cell-based; conditions: human, 12 h, 1 µM, compound concentration 1 uM, replicate 1
Field: Total Cell Count. Provide a value for each of the compounds that follow.
Give bare numbers.

Here is how some compounds turned out for Total Cell Count.
>>> df
                                   compound  quantitative_readout
0  CC(C)C[C@H](CO)Nc1nc(S[C@@H](C)c2ccccc2)nc2nc(N)sc12                   177
1  Cc1cc(-c2ccc3c(c2)CC[C@H]3N2CC3(CCN(C(=O)Cc4cn5cc(C)sc5n4)CC3)C2)ncn1                   239
2          COc1ccc2[nH]c(I)c(CCNC(C)=O)c2c1                   282
3  CN1CCN(c2ccc(Nc3c4ccccc4nc4ccccc34)cc2)CC1.Cl.Cl.O                   193
4  Cc1nn(C)c2nc(NNC(=O)Nc3cc(Cl)nc(Cl)c3)cc(C(C)C)c12                   268

Would you mind listing Total Cell Count for each of the following compounds?
1. Cc1ccc(OCC(O)C(C)NC(C)C)c2c1CCC2.Cl (stereo unspecified)
2. COC(c1ccccc1)(c1ccccc1)[C@H](Oc1nc(C)cc(C)n1)C(=O)O

222
209

Batch lookup, Total Cell Count per entry.
1. CSc1nc(NC2CCCC2)c([N+](=O)[O-])c(NC2CCCC2)n1
2. CCCCC[C@H](O)/C=C/[C@H]1[C@H](O)CC(=O)[C@@H]1CCCCCCC(=O)O

1: 209; 2: 219

Please give Total Cell Count, item by item, for the list that follows.
1. CC(C)(O)C(=O)N1CCN(c2ccc(C(F)(F)F)c(C3=C(c4c[nH]c5ccccc45)C(=O)NC3=O)c2)CC1
2. COc1c(Nc2ccc(S(C)(=O)=O)nc2C)ncnc1OC1CCN(C(=O)OC(C)C)CC1
3. S=C(NCCCc1c[nH]cn1)NCCCN(Cc1ccc(Cl)c(Cl)c1)c1ccc(Br)cn1

238
208
228

Please report Total Cell Count for every entry that follows.
1. COc1cc2nc(N3CCN(C(=O)COc4c(OC)cccc4C(C)C)CC3)nc(N)c2cc1OC.Cl.Cl
2. Cc1sc2c(c1C)C(c1ccc(Cl)cc1)=N[C@H](CC(=O)OC(C)(C)C)c1nnc(C)n1-2

256
256

// batch mode: one Total Cell Count value per listed entry
1. Cl.Cl.OCCOCCN1CCN(C(c2ccccc2)c2ccc(Cl)cc2)CC1 (stereo unspecified) [HYDROXYZINE HYDROCHLORIDE]
2. Cc1cc(O)c(-c2ccc([C@@H](C)CN(C)C)cc2)c2c1[nH]c(=O)c1sccc12

1: 208; 2: 252
